target: T1, hCMV gH + gL + UL128 + UL130 + UL131A (5-member complex; HEK293T co-transfectant) (hCMV, UniProt P12824 24-743; P16832 31-278; P16837 1-171; P16772 1-214); assay: cell competition; competitor 1F11-biotin
T1 construct: whole, on cells; in the functional rows it stands for the complex on virions or transduced cells of the strain or isolate named in the readout; also called gH/gL/UL128-131A complex; pentameric complex
readout type: Inhibition of binding (%)

input: So what's the measured Inhibition of binding (%) for this one? 7I13 (antibody, V domains shown, human IgG; also called 7113) VH: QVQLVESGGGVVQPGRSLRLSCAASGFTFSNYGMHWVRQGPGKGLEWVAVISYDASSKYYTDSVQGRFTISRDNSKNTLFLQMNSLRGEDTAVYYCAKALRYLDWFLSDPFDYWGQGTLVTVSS VL: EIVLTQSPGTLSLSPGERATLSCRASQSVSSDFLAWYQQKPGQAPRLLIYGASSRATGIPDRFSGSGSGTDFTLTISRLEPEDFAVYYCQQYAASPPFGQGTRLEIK
output: 0%

input: So what's the measured Inhibition of binding (%) for this one? 4N10 (antibody, V domains shown, human IgG; also called 4N10-biotin) VH: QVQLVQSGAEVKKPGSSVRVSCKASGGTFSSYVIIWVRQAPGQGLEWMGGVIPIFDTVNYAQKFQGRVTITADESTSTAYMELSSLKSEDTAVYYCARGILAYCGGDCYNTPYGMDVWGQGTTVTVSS VL: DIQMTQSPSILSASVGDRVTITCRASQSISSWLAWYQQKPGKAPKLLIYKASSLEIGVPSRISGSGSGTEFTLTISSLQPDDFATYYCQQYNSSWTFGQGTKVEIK
output: 0%

input: So what's the measured Inhibition of binding (%) for this one? 2C12 (antibody, V domains shown, human IgG; also called 2C12-biotin) VH: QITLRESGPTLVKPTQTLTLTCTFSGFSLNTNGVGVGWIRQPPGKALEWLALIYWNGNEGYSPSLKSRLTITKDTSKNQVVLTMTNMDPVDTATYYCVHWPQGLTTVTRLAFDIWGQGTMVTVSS VL: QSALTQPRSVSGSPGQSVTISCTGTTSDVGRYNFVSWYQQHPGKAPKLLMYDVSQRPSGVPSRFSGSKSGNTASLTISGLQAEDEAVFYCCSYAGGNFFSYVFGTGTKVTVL
output: 0%

input: So what's the measured Inhibition of binding (%) for this one? 10F7 (antibody, V domains shown, human IgG; also called 10F7-biotin) VH: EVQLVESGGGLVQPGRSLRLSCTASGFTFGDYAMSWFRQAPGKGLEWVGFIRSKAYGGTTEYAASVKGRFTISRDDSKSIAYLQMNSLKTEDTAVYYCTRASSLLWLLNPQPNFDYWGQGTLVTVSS VL: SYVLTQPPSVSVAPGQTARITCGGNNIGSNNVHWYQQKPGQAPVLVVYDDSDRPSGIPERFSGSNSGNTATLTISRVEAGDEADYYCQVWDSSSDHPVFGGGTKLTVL
output: 100%

input: So what's the measured Inhibition of binding (%) for this one? 4I22 (antibody, human IgG1, V domains shown, fully human IgG1 with unaltered Fc; also called 4I22-biotin; 4122) VH: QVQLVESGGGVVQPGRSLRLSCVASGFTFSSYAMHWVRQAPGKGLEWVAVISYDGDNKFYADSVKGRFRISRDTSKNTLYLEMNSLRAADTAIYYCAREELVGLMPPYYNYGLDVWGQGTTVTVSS VL: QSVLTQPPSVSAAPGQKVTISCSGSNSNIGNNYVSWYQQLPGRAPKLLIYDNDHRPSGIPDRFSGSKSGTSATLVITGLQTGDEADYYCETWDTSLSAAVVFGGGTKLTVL
output: 100%

input: So what's the measured Inhibition of binding (%) for this one? 9I6 (antibody, V domains shown, human IgG; also called 9I6-biotin; 916) VH: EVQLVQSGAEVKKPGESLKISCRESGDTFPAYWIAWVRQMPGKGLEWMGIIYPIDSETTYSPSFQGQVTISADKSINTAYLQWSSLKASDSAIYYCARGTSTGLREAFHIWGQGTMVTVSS VL: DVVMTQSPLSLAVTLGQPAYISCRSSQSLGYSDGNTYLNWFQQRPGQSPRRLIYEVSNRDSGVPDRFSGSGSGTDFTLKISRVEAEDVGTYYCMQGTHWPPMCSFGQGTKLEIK
output: 0%

The reported measurements were obtained from patent US20170296650A1.
